# experimentalTarget: recombinant human ALK enzyme (ALK WT) (Homo sapiens)
# Construct: purchased Carna Biosciences 08-518
# assayProcedure: ALK WT cell free enzymatic assay (TR-FRET)
# Type: biochemical
# recordedConditions: compound at 100 nM; 30 min pre-incubation; 1 μM ATP
# Method: ALK Wild Type (WT) The ALK WT cell free assay was set up to evaluate the effects of these compounds as inhibitors of ALK enzyme. […] TR-FRET (Time resolved fluorescence resonance energy transfer) detection technology was used for the read out. […] The TR-FRET signal (Excitation at 340 nm, Emission at 615 nm and 665 nm) was read with 50 μs delay time on Victor^3 V fluorimeter. The data is calculated using the ratio of reading at 665 nM to 615 nM. […]
Where a name gives a salt, the structure may show the parent alone.
quantity: inhibition at 0.1 µM (%)

# count of solved cases: 2
> print(dat)
                                   compound              quantity  resultunit  observed
1  Fc1cccc(Cn2cc(-c3c[nH]c4ncc(-c5cccc(N6CCNCC6)c5)cc34)cn2)c1 [Example 33, hydrochloride]  inhibition at 0.1 µM           %        97
2  C[C@H](O)CN1CCN(c2ccc(-c3cnc4[nH]cc(-c5cnn(Cc6cccc(F)c6)c5)c4c3)nc2)CC1  inhibition at 0.1 µM           %        60

a: COc1cc(N2CCN(C[C@H](C)O)CC2)ccc1-c1cnc2[nH]cc(-c3cnn(Cc4cccc(F)c4)c3)c2c1
b: Cc1c(-c2c[nH]c3ncc(-c4ccc(C5CCNCC5)c(F)c4)cc23)cnn1Cc1cccc(F)c1
[Q] # returns the entry with the larger inhibition at 0.1 µM; inputs a and b Let me know the label of the one you choose.
[A] b

----------
# experimentalTarget: recombinant human ALK enzyme (ALK WT) (Homo sapiens, UniProt Q9UM73)
# Construct: purchased Carna Biosciences 08-518
# Sequence (Q9UM73 1058-1620 limits assumed): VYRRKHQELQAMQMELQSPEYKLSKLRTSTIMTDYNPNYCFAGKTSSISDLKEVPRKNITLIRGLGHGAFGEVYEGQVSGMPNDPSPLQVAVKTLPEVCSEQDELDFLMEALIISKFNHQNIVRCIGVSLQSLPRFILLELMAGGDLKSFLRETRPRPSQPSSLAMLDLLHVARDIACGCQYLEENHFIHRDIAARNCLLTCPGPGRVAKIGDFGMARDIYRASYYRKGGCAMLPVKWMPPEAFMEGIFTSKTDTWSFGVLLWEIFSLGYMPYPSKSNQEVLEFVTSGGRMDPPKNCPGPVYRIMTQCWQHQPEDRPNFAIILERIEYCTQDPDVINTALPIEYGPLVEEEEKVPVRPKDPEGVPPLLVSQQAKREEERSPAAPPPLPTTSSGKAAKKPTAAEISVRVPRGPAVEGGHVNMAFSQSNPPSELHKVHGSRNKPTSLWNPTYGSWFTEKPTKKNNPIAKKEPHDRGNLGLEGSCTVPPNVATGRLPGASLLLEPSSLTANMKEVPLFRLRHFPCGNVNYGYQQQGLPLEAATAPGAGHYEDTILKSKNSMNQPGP
# assayProcedure: ALK WT cell free enzymatic assay (TR-FRET)
# Type: biochemical
# recordedConditions: compound at 100 nM; 30 min pre-incubation; 1 μM ATP
Where a name gives a salt, the structure may show the parent alone.
quantity: inhibition at 0.1 µM (%)

> print(dat)
                                   compound              quantity  resultunit  observed
1  c1ccc(CCn2cc(-c3c[nH]c4ncc(-c5ccc(C6CCNCC6)cc5)cc34)cn2)cc1 [Example 88]  inhibition at 0.1 µM           %        89
2  C[C@H](O)CN1CCN(c2cnc(-c3cnc4[nH]cc(-c5cnn(Cc6cccc(F)c6)c5)c4c3)cn2)CC1 [Example 163]  inhibition at 0.1 µM           %        88
3  Cc1nn(Cc2cccc(F)c2)c(C)c1-c1c[nH]c2ncc(-c3ccc(C4CCNCC4)cc3)cc12 [Example 92]  inhibition at 0.1 µM           %        98
4  Cc1cccc(Cn2nc(C)c(-c3c[nH]c4ncc(-c5ccc(N6CCNCC6)cc5)cc34)c2C)c1 [Example 51, hydrochloride]  inhibition at 0.1 µM           %        84

----------
# experimentalTarget: recombinant human ALK enzyme (ALK WT) (Homo sapiens)
# Construct: purchased Carna Biosciences 08-518
# assayProcedure: ALK WT cell free enzymatic assay (TR-FRET)
# Assay type: biochemical
# recordedConditions: compound at 1 μM; 30 min pre-incubation; 1 μM ATP
quantity: inhibition at 1 µM (%)

> print(dat)
                            structurestring  observed
1  Cc1cccc(Cn2cc(-c3c[nH]c4ncc(-c5ccc(N6CCN(C[C@H](C)O)CC6)nc5)cc34)cn2)c1        99
2  Cc1cccc(Cn2cc(-c3c[nH]c4ncc(-c5ccc(C6CCNCC6)cc5)cc34)cn2)c1       100
3  Fc1cccc(Cn2cc(-c3c[nH]c4ncc(-c5cnc(N6CCNCC6)c(F)c5)cc34)cn2)c1        98
4  CN1CCC(c2ccc(-c3cnc4[nH]cc(-c5cnn(Cc6cccc(F)c6)c5)c4c3)cc2F)CC1       100
5  Cc1nn(Cc2cc(F)cc(F)c2)c(C)c1-c1c[nH]c2ncc(-c3ccc(F)c(NS(C)(=O)=O)c3)cc12        93
6  Fc1ccc(F)c(Cn2cc(-c3c[nH]c4ncc(-c5cccc(N6CCNCC6)c5)cc34)cn2)c1        99
7  Cc1nn(Cc2cccc(F)c2)c(C)c1-c1c[nH]c2ncc(-c3ccc(OCCCN(C)C)c(NS(C)(=O)=O)c3)cc12       100
8  Fc1cc(F)cc(Cn2ccc(-c3c[nH]c4ncc(-c5ccc(N6CCNCC6)cc5)cc34)n2)c1       100
9  COc1ccc(-c2cnc3[nH]cc(-c4c(C)nn(Cc5cc(F)cc(F)c5)c4C)c3c2)cc1NS(C)(=O)=O        96

----------
# experimentalTarget: recombinant human ALK enzyme (ALK WT) (Homo sapiens, UniProt Q9UM73)
# Construct: purchased Carna Biosciences 08-518
# assayProcedure: ALK WT cell free enzymatic assay (TR-FRET)
# Type: biochemical
# recordedConditions: compound at 100 nM; 30 min pre-incubation; 1 μM ATP
quantity: inhibition at 0.1 µM (%)

> print(dat)
                                   compound                        experimentaltarget  observed
1  OC1CCN(c2ccc(-c3cnc4[nH]cc(-c5cnn(Cc6cccc(F)c6)c5)c4c3)cc2)CC1  recombinant human ALK enzyme (ALK WT) (Homo sapiens, UniProt Q9UM73)        90

1: CCS(=O)(=O)N1CCN(c2ccc(-c3cnc4[nH]cc(-c5cnn(Cc6cccc(F)c6)c5)c4c3)cn2)CC1
2: c1cc(Cn2cc(-c3c[nH]c4ncc(-c5ccc(C6CCNCC6)cc5)cc34)cn2)ccn1
3: Cc1c(-c2c[nH]c3ncc(-c4ccc(C5CCNCC5)cc4)cc23)cnn1Cc1cccc(F)c1
[Q] Sort by inhibition at 0.1 µM, descending. Please respond with the labels ordered as the question requires.
[A] 3, 1, 2

----------
# experimentalTarget: recombinant human ALK enzyme (ALK WT) (Homo sapiens, UniProt Q9UM73)
# Construct: purchased Carna Biosciences 08-518
# assayProcedure: ALK WT cell free enzymatic assay (TR-FRET)
# Type: biochemical
# recordedConditions: compound at 1 μM; 30 min pre-incubation; 1 μM ATP
Structures can show the parent of a compound that is named as a salt.
quantity: inhibition at 1 µM (%)

> print(dat)
                                   compound  observed
1  COc1cc(-c2cnc3[nH]cc(-c4cnn(Cc5cccc(F)c5)c4)c3c2)ccc1C1CCNCC1        98
2  Cc1nn(Cc2cc(F)cc(F)c2)c(C)c1-c1c[nH]c2nc(C3CC3)c(-c3ccc(N4CCNCC4)cc3)cc12 [Example 60, hydrochloride]        10
3  CN1CCN(c2ncc(-c3cnc4[nH]cc(-c5cnn(Cc6cccc(F)c6)c5)c4c3)cc2F)CC1        99
4  Cc1nn(Cc2cccc(F)c2)c(C)c1-c1c[nH]c2ncc(-c3ccc(OCCO)c(NS(C)(=O)=O)c3)cc12        96
5  COc1cc(-c2cnc3[nH]cc(-c4cnn(Cc5cccc(F)c5)c4)c3c2)cnc1N        96

I: CCOc1cccc(Cn2nc(C)c(-c3c[nH]c4ncc(-c5ccc(N6CCNCC6)cc5)cc34)c2C)c1 [Example 54, hydrochloride]
II: COc1ccc(Cn2cc(-c3c[nH]c4ncc(-c5cccc(NS(C)(=O)=O)c5)cc34)cn2)cc1
[Q] Record comparison, field inhibition at 1 µM: mark the lower of I and II . Let me know the label of the one you choose.
[A] I

P: Fc1cccc(Cn2cc(-c3c[nH]c4ncc(-c5ccc(N6CCNCC6)c(F)c5)cc34)cn2)c1
Q: COc1ccc(-c2cc3c(-c4c(C)nn(Cc5cccc(F)c5)c4C)c[nH]c3nc2C2CC2)cc1NS(C)(=O)=O
[Q] # returns the entry with the larger inhibition at 1 µM; inputs P and Q Let me know the label of the one you choose.
[A] P
(P: 100%, Q: 49%)

----------
# experimentalTarget: recombinant human ALK enzyme (ALK WT) (Homo sapiens, UniProt Q9UM73)
# Construct: purchased Carna Biosciences 08-518
# assayProcedure: ALK WT cell free enzymatic assay (TR-FRET)
# Format: biochemical
# recordedConditions: compound at 1 μM; 30 min pre-incubation; 1 μM ATP
Where a name gives a salt, the structure may show the parent alone.
quantity: inhibition at 1 µM (%)

> print(dat)
                                    compound                        experimentaltarget            quantity  resultunit  observed
 1  O=C(CO)N1CCN(c2ccc(-c3cnc4[nH]cc(-c5cnn(Cc6cccc(F)c6)c5)c4c3)cn2)CC1 [Example 154]  recombinant human ALK enzyme (ALK WT) (Homo sapiens, UniProt Q9UM73)  inhibition at 1 µM           %       100
 2  COc1cccc(Cn2nc(C)c(-c3c[nH]c4ncc(-c5ccc(N6CCNCC6)cc5)cc34)c2C)c1 [Example 46, hydrochloride]  recombinant human ALK enzyme (ALK WT) (Homo sapiens, UniProt Q9UM73)  inhibition at 1 µM           %        98
 3  Cc1nn(Cc2cccc(F)c2)c(C)c1-c1c[nH]c2ncc(-c3cnc(O)c(NS(C)(=O)=O)c3)cc12 [Example 66]  recombinant human ALK enzyme (ALK WT) (Homo sapiens, UniProt Q9UM73)  inhibition at 1 µM           %        95
 4  Fc1cccc(Cn2cc(-c3c[nH]c4ncc(-c5ccc(N6CCNCC6)cc5)cc34)cn2)c1 [Example 39, hydrochloride]  recombinant human ALK enzyme (ALK WT) (Homo sapiens, UniProt Q9UM73)  inhibition at 1 µM           %        99
 5  COc1cc(-c2cnc3[nH]cc(-c4cnn(Cc5cccc(F)c5)c4)c3c2)ccc1N1CCN(C[C@H](C)O)CC1 [Example 112]  recombinant human ALK enzyme (ALK WT) (Homo sapiens, UniProt Q9UM73)  inhibition at 1 µM           %       100
 6  CS(=O)(=O)Nc1cccc(-c2cnc3[nH]cc(-c4cnn(Cc5cccc(Cl)c5)c4)c3c2)c1 [Example 10]  recombinant human ALK enzyme (ALK WT) (Homo sapiens, UniProt Q9UM73)  inhibition at 1 µM           %        81
 7  COc1ccc(-c2cnc3[nH]cc(-c4c(C)nn(Cc5cccc(F)c5)c4C)c3c2)cc1NS(C)(=O)=O [Example 14]  recombinant human ALK enzyme (ALK WT) (Homo sapiens, UniProt Q9UM73)  inhibition at 1 µM           %        95
 8  COc1ccc(-c2cnc3[nH]cc(-c4cnn(Cc5cc(F)cc(F)c5)c4)c3c2)cc1NS(C)(=O)=O [Example 71]  recombinant human ALK enzyme (ALK WT) (Homo sapiens, UniProt Q9UM73)  inhibition at 1 µM           %       100
 9  C[C@H](O)CN1CCC(c2ccc(-c3cnc4[nH]cc(-c5cnn(Cc6cccc(F)c6)c5)c4c3)cn2)CC1 [Example 102A]  recombinant human ALK enzyme (ALK WT) (Homo sapiens, UniProt Q9UM73)  inhibition at 1 µM           %        94
10  NC(=O)CN1CCN(c2ccc(-c3cnc4[nH]cc(-c5cnn(Cc6cccc(F)c6)c5)c4c3)cc2)CC1 [Example 103]  recombinant human ALK enzyme (ALK WT) (Homo sapiens, UniProt Q9UM73)  inhibition at 1 µM           %       100
11  c1ccc(CCn2cc(-c3c[nH]c4ncc(-c5ccc(N6CCNCC6)cc5)cc34)cn2)cc1 [Example 185]  recombinant human ALK enzyme (ALK WT) (Homo sapiens, UniProt Q9UM73)  inhibition at 1 µM           %        86
12  COc1ccc(-c2cnc3[nH]cc(-c4cnn(Cc5cc(F)ccc5F)c4)c3c2)cc1NS(C)(=O)=O [Example 70]  recombinant human ALK enzyme (ALK WT) (Homo sapiens, UniProt Q9UM73)  inhibition at 1 µM           %        99
13  CS(=O)(=O)Nc1cc(-c2cnc3[nH]cc(-c4ccn(Cc5cc(F)cc(F)c5)n4)c3c2)ccc1N1CCNCC1 [Example 113]  recombinant human ALK enzyme (ALK WT) (Homo sapiens, UniProt Q9UM73)  inhibition at 1 µM           %        97
